- experimentSummary: Metabolic stability in rat liver microsomes assessed as compound remaining after 30 mins
- Type: ADME, Microsome
- conditions: read-out: Stability

| chemicalString | remaining at 0.5 h [%] |
| --- | --- |
| Cc1c(CC(=O)O)c2ccsc2n1Cc1ccc(S(C)(=O)=O)cc1 | 90 |
| Cc1c(CC(=O)O)c2ccsc2n1Cc1ccc(S(=O)(=O)N(C)C2CCCCC2)cc1 | 57 |
| Cc1c(CC(=O)O)c2ccsc2n1Cc1ccc(S(C)(=O)=O)cc1Cl | 99 |
| Cc1c(CC(=O)O)c2ccsc2n1S(=O)(=O)c1ccc(S(C)(=O)=O)cc1 | 100 |

###

The following molecules are listed with their measured remaining at 0.5 h values.
- experimentSummary: Metabolic stability in human liver microsomes assessed as compound remaining after 30 mins
- Assay type: ADME, Microsome
- conditions: read-out: Stability

| chemicalString | remaining at 0.5 h |
| --- | --- |
| Cc1c(CC(=O)O)c2ccsc2n1Cc1ccc(S(C)(=O)=O)cc1 | 91% |
| Cc1c(CC(=O)O)c2ccsc2n1Cc1ccc(S(C)(=O)=O)cc1Cl | 97% |
| Cc1c(CC(=O)O)c2ccsc2n1S(=O)(=O)c1ccc(S(C)(=O)=O)cc1 | 100% |
| Cc1c(CC(=O)O)c2ccsc2n1Cc1ccc(S(=O)(=O)N(C)C2CCCCC2)cc1 | 62% |

###

Recorded pIC50 by entry
- systemTested: Prostaglandin D2 receptor 2 (Homo sapiens)
- Sequence (Q9Y5Y4 whole entry): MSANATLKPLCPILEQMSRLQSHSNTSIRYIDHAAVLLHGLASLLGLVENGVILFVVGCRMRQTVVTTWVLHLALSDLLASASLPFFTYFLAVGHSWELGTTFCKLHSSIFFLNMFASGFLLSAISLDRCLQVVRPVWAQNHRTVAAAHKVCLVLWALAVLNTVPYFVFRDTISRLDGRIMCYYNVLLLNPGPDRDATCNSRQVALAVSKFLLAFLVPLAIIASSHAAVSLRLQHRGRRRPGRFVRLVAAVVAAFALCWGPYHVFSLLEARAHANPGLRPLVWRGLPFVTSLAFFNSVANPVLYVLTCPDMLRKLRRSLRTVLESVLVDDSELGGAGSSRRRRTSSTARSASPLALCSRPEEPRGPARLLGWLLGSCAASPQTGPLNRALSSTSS
- experimentSummary: Displacement of [3H]PGD2 from human CRTH2 receptor expressed in HEK293 cell membranes
pIC50: −log10 of the molar value.
experimentalReadout: pIC50

| chemicalString | experimentalReadout | valueObserved |
| --- | --- | --- |
| Cc1c(CC(=O)O)c2ccsc2n1Cc1ccc(S(=O)(=O)N2CCOCC2)cc1 | pIC50 | 7.15 |
| Cc1c(CC(=O)O)c2ccsc2n1S(=O)(=O)c1ccc(S(C)(=O)=O)cc1 | pIC50 | 7.05 |
| Cc1c(CC(=O)O)c2ccsc2n1S(=O)(=O)c1ccccc1 | pIC50 | 5.56 |
| Cc1c(CC(=O)O)c2ccsc2n1S(=O)(=O)c1ccc(C(F)(F)F)cc1 | pIC50 | 5.95 |
| Cc1c(CC(=O)O)c2ccsc2n1S(=O)(=O)c1ccc(S(=O)(=O)N2CCCC2)cc1 | pIC50 | 6.41 |
